Biological target: Human KIF18A (amino acid sequence 1-417) (Homo sapiens, UniProt Q8NI77)
Sequence (Q8NI77 1-417): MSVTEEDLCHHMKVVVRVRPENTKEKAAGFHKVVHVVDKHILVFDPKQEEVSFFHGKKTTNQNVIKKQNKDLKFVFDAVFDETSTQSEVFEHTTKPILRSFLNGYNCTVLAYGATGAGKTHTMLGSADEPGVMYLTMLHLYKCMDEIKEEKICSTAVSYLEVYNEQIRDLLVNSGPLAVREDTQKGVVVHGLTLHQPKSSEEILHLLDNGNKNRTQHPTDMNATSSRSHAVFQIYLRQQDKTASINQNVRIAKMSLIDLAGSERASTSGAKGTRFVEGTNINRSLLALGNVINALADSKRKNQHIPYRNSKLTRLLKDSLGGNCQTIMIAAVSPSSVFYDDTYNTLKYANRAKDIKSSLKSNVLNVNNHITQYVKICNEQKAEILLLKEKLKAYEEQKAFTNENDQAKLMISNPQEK
Experiment: Enzymatic activity test (ADP-Glo, microtubule-stimulated KIF18A ATPase)
Settings: 60 μg/mL microtubules, 25 μM ATP, 2.5 nM KIF18A protein, 120 min at ambient temperature, read-out: KIF18A_nM
Measured IC50 by item
assay_readout: IC50 (nM)

>>> value("C[C@H](CO)S(=O)(=O)Nc1ccc(C(=O)Nc2cc3sc(N)nc3c(N3CCC(F)(F)CC3)c2F)c(N2CCC3(CC2)CC3)c1 [Example 94]")
255
>>> value("C[C@@H](CO)S(=O)(=O)Nc1ccc(C(=O)Nc2cc3cccnc3c(N3CCC(F)(F)CC3)c2F)c(N2CCC3(CC2)CC3)c1 [Example 99]")
174
>>> value("O=C(Nc1cc(N2CCC(F)(F)CC2)c2nccn2c1)c1ccc(NS(=O)(=O)CCO)cc1N1CCC2(CC1)CC2 [Example 14]")
32
>>> value("Cc1nnc2cc(NC(=O)c3ccc(NS(=O)(=O)CCO)cc3N3CCC4(CC3)CC4)nc(N3CCC(F)(F)CC3)n12 [Example 27]")
13
>>> value("Cn1cnc2cc(NC(=O)c3ccc(NS(=O)(=O)CCO)cc3N3CCC4(CC3)CC4)nc(N3CCC(F)(F)CC3)c21 [Example 34]")
63
>>> value("Cn1ncc2c(N3CCC(F)(F)CC3)nc(NC(=O)c3ccc(NS(=O)(=O)CCO)cc3N3CCC4(CC3)CC4)cc21 [Example 36]")
39
>>> value("C[C@H](CO)S(=O)(=O)Nc1ccc(C(=O)Nc2cc3cccnc3c(N3CCC(F)(F)CC3)c2F)c(N2CCC3(CC2)CC3)c1 [Example 98]")
166
>>> value("O=C(Nc1cn2nccc2c(N2CCC(F)(F)CC2)n1)c1ccc(NS(=O)(=O)CCO)cc1N1CCC2(CC1)CC2 [Example 17]")
28
>>> value("O=C(Nc1cn2cccc2c(N2CCC(F)(F)CC2)n1)c1ccc(NS(=O)(=O)CCO)cc1N1CCC2(CC1)CC2 [Example 11]")
191
>>> value("O=C(Nc1cc(N2CCC(F)(F)CC2)c2nccnc2c1)c1ccc(NS(=O)(=O)CCO)cc1N1CCC2(CC1)CC2 [Example 83]")
27
